Origin of measurements: patent US20260374820

- Tgt: T1, mouse MuSK (mouse, UniProt Q61006)
- T1 chain: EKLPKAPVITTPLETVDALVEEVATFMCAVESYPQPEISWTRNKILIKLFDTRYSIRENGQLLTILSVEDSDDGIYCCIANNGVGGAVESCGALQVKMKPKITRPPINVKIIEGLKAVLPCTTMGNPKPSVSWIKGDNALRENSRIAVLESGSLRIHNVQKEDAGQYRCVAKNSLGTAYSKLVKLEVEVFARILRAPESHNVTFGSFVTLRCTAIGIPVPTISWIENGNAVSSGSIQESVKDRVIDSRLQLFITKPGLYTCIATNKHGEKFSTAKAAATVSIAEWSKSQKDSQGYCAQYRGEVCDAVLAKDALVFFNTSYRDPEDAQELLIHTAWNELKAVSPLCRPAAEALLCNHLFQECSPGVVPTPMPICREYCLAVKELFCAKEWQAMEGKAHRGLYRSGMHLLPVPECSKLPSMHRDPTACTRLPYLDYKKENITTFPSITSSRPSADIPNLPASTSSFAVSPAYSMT
- Procedure Summary: SPR
pKd: −log10 of the molar value.

Binder: MuSK7-pal (macrocyclic homodimer with palmitoyl group) chain 1: YPSYHTNVVASLKRC chain 2: YPSYHTNVVASLKRC
pKd: 8.06
